Origin of the recorded values: paper PMC12010006

molecular target: MRGPRX2 (Homo sapiens); assay: β-arrestin recruitment assay (antagonist mode), β-arrestin-CHO cells recombinantly expressing MRGPRX2; type: cell-based; parameters: expressed in transfected cells; conditions: versus SP (EC80 3 µM); read-out: Ki versus substance P, β-arrestin assay
quantity_measured: Ki (nM)

CCc1c(C(C)C)[nH]c2nc3cc(F)c(F)cc3n2c1=O	8.82

----------
biological target: MRGPRX2 (Homo sapiens); test: Ca2+ mobilization assay, LN229 cells overexpressing MRGPRX2; assay type: cell-based; set-up: expressed in transfected cells; host or cells: LN229 human glioblastoma cells; plasmid pLXSN-MRGPRX2 (Addgene #213960); details: versus CST-14 (EC80 800 nM, EC50 452 nM); Cheng-Prusoff; read-out: Ca2+ assay Ki ± SEM
Measured log10 of Ki, listed per entry.
quantity_measured: log10 of Ki (log10 of the value in nM)

CCc1c(C(C)C)[nH]c2nc3cc(Cl)c(Cl)cc3n2c1=O	0.47
CC(C)c1cc(=S)n2c(nc3ccccc32)[nH]1	0.15
CCc1c(C2CC2)[nH]c2nc3ccccc3n2c1=O	1.84
CCc1c(C(C)C)[nH]c2nc3nc(F)ccc3n2c1=O	2.96
CCc1c(C)[nH]c2nc3ccccc3n2c1=O	2.38
CCc1c(C(C)C)[nH]c2nc3cc(Br)c(Br)cc3n2c1=O	1.12
CC(C)c1cc(=O)n2c(nc3ccccc32)[nH]1	3.63
CCCc1[nH]c2nc3ccccc3n2c(=O)c1CCC	1.22
CCc1c(CC(C)C)[nH]c2nc3ccccc3n2c1=O	1.27
CCCc1[nH]c2nc3ccccc3n2c(=O)c1CC	1.41
CCc1c(C(C)(C)C)[nH]c2nc3ccccc3n2c1=O	0.93
CCc1c(C(C)C)[nH]c2nc3cc(F)ccc3n2c1=O	-0.34
CCCc1c(C(C)C)[nH]c2nc3ccccc3n2c1=O	1.64

----------
target: MRGPRX2 (Homo sapiens); assay: Degranulation (β-hexosaminidase release), RBL-MRGPRX2 cells; assay type: cell-based; conditions: versus LL-37 (3 µM)
quantity_measured: IC50 (nM)

CCc1c(C(C)C)[nH]c2nc3cc(F)c(F)cc3n2c1=O [Compound 24]	8.12

----------
molecular target: UniProt Q96LB1; test: Ca2+ mobilization assay, LN229 cells overexpressing MRGPRX2; assay type: cell-based; design: expressed in transfected cells; host or cells: LN229 human glioblastoma cells; plasmid pLXSN-MRGPRX2 (Addgene #213960); settings: versus CST-14 (EC80 800 nM, EC50 452 nM); Cheng-Prusoff; read-out: Ca2+ assay Ki ± SEM
quantity_measured: log10 of Ki (log10 of the value in nM)

Cc1[nH]c2nc3ccccc3n2c(=O)c1C	3.02
CCc1c(-c2ccccc2)[nH]c2nc3ccccc3n2c1=O	2.56
CCc1c(C(C)C)[nH]c2nc3cc(C)c(C)cc3n2c1=O	0.82
CCc1c(C(C)C)[nH]c2nc3cc(F)c(F)cc3n2c1=O	-0.85
CCc1c(C(C)C)[nH]c2nc3ccc(C)cc3n2c1=O	-0.49
CCc1c(C(C)C)[nH]c2nc3ncc(F)cc3n2c1=O	2.97
CCCc1cc(=O)n2c(nc3ccccc32)[nH]1	3.67
CCc1c(C(C)C)[nH]c2nc3cc(C)ccc3n2c1=O	-0.79
CCCc1c(C)[nH]c2nc3ccccc3n2c1=O	2.39
CCc1c(C(C)C)[nH]c2nc3ccccc3n2c1=O	-0.05

----------
target: MRGPRX2 (Homo sapiens, UniProt Q96LB1); test: β-hexosaminidase release, LAD2 cells; type: cell-based; details: versus SP (0.3 µM)
quantity_measured: IC50 (nM)

CCc1c(C(C)C)[nH]c2nc3cc(F)c(F)cc3n2c1=O	5.26

----------
Target: MRGPRX2 (Homo sapiens, UniProt Q96LB1)
Sequence (Q96LB1 1-330): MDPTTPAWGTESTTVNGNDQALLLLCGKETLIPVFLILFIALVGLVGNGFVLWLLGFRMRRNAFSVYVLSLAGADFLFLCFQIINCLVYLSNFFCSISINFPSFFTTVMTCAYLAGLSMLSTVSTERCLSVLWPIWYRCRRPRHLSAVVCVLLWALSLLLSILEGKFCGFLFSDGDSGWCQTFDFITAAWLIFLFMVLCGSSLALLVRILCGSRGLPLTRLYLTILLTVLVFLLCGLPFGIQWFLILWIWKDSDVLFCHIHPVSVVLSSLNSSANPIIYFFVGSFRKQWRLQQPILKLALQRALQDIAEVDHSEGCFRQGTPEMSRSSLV
Assay: β-arrestin recruitment assay (antagonist mode), β-arrestin-CHO cells recombinantly expressing MRGPRX2
Type: cell-based
Parameters: expressed in transfected cells
Settings: versus (R)-ZINC-3573 (EC80 2 µM); read-out: IC50 versus (R)-ZINC-3573, β-arrestin assay
pIC50: −log10 of the molar value.
quantity_measured: pIC50

CCc1c(C(C)C)[nH]c2nc3cc(F)c(F)cc3n2c1=O	7.95

----------
Target: MRGPRX2 (Homo sapiens, UniProt Q96LB1)
Sequence (Q96LB1 1-330): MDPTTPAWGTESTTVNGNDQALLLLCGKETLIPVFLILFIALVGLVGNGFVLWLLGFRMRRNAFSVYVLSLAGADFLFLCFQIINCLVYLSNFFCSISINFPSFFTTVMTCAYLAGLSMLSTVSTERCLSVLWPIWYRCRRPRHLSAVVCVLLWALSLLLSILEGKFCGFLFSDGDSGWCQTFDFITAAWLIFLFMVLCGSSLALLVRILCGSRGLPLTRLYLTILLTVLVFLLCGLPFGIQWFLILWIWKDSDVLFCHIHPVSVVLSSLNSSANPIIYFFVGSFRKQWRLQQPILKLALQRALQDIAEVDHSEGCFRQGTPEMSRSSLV
Test: Degranulation (β-hexosaminidase release), RBL-MRGPRX2 cells
Format: cell-based
Settings: versus C48/80 (0.3 µg/mL)
quantity_measured: IC50 (nM)

CCc1c(C(C)C)[nH]c2nc3cc(F)c(F)cc3n2c1=O	3.79

----------
Biological target: UniProt:Q96LB1
Sequence (Q96LB1 1-330): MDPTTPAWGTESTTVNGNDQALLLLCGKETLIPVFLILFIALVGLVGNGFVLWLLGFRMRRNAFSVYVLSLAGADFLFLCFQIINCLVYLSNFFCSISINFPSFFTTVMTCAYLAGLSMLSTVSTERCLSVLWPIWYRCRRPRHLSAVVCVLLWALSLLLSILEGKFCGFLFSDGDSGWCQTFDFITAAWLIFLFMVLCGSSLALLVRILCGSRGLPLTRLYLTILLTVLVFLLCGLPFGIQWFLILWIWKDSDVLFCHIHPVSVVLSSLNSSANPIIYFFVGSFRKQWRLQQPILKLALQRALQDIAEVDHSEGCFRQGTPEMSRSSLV
Test: Ca2+ mobilization assay, LN229 cells overexpressing MRGPRX2
Assay type: cell-based
Set-up: expressed in transfected cells; host or cells: LN229 human glioblastoma cells; plasmid pLXSN-MRGPRX2 (Addgene #213960)
Conditions: versus CST-14
quantity_measured: MRGPRX2 antagonistic potency in Ca2+ assay, in words

CCc1c(C(C)C)[nH]c2nc3cc(F)c(F)cc3n2c1=O	subnanomolar potencies
Cc1cc(=O)n2c(n1)oc1ccccc12	inactive
CCc1c(C(C)C)[nH]c2nc3cc(C)ccc3n2c1=O	subnanomolar potencies
CC(C)c1cc(=O)n2c3ccccc3n(C)c2n1	not tolerated
CCc1c(C)n(C)c2nc3ccccc3n2c1=O	not tolerated
Cc1cc(=O)n2c(n1)sc1ccccc12	inactive
CCc1c(C(C)C)[nH]c2nc3ccccc3n2c1=O	subnanomolar potencies
CCc1c(C(C)C)[nH]c2nc3cc(F)ccc3n2c1=O	subnanomolar potencies

----------
target: MRGPRX2 (Homo sapiens); test: β-arrestin recruitment assay (antagonist mode), β-arrestin-CHO cells recombinantly expressing MRGPRX2; assay type: cell-based; set-up: expressed in transfected cells; settings: versus CST-14 (EC80 1,000 nM, EC50 483 nM); Cheng-Prusoff; read-out: β-Arrestin assay Ki ± SEM
pKi: −log10 of the molar value.
quantity_measured: pKi

CCCc1[nH]c2nc3ccccc3n2c(=O)c1CCC [Compound 9]	7.16
CCc1c(C(C)C)[nH]c2nc3ccc(C)cc3n2c1=O [Compound 28]	7.32
CCc1c(C(C)C)[nH]c2nc3cc(F)c(F)cc3n2c1=O [Compound 24]	8.17
CC(C)c1cc(=S)n2c(nc3ccccc32)[nH]1 [Compound 18]	7.32
CCc1c(CC(C)C)[nH]c2nc3ccccc3n2c1=O [Compound 12]	6.82

----------
assay: MTT cytotoxicity assay, 1321N1 astrocytoma cells; type: cell-based; conditions: human
quantity_measured: CC50 at 72 h

CCc1c(C(C)C)[nH]c2nc3cc(C)c(C)cc3n2c1=O	> 10 µM
CCc1c(C(C)C)[nH]c2nc3cc(F)ccc3n2c1=O	> 10 µM
CCc1c(C(C)C)[nH]c2nc3cc(F)c(F)cc3n2c1=O	> 10 µM
